- Target or test system: T1, MepR(F27L/F104A) (Staphylococcus aureus, UniProt Q5Y812 1-139, F27L;F104A)
- T1 sequence: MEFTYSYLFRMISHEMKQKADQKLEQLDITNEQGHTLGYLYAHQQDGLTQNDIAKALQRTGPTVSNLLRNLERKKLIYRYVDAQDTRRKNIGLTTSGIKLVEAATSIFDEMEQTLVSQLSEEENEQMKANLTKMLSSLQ
- Protocol details: ITC
pKd: −log10 of the molar value.

Binder	pKd
mepR operator, palindromic 26-mer (dsDNA) DNA 1: TATTTAGTTAGATATCTAACTAAATA DNA 2: TATTTAGTTAGATATCTAACTAAATA	7.49
